All figures here come from patent US20210261605A1.

Molecular target: IgG1 (product of Sigma-Aldrich)
Test: SPR (Biacore T100), Fc-binding protein immobilized on CM5 chip, IgG1 in flow
measurementType: kon (M⁻¹ s⁻¹)
Response body: numeric value in M⁻¹ s⁻¹, unit text excluded.

Which kon is listed for FcR9_A (SEQ ID NO: 26), Fc-binding protein containing the amino acid substitution Val192Ala (receptor) KIEEAMGMRTEDLPKAEVILEPQWNRVLEKDSVTLKCRGAYSPEDNSTQWFHNESLISSQASSYLIDAATVDDSGEYRCQTSLSTLSDPVQLEVHIGWLLLQAPRWEFKEGDPIHLRCHSWKNTALHKVTYLQNGKGRKYFHHNSDFYIPKATLKDSGSYSCRGLAGSKNVSSETVNITITQGGHHHHHH ?
100000
